Provide the reported pKd of each item.
Biological target: T1, cynoCD46-His (cynomolgus, UniProt A0A2K5WCL8 35-328)
T1 construct: extracellular domain; Immobilised by amine coupling on the SPR chip; not shown: His tag
T1 sequence: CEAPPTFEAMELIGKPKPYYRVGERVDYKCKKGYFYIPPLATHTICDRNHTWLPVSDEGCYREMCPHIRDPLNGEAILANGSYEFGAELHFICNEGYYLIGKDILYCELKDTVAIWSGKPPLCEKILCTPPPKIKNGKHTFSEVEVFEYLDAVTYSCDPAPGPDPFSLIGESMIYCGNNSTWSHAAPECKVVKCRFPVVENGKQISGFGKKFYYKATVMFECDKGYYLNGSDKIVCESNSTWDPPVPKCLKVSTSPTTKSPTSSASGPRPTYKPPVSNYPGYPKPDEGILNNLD
Experiment: SPR, cynoCD46-His immobilised, antibody as analyte, pH 7.4
Just so you know, pKd here is -log10 of the concentration in molar units; reply with that number alone.

Looking up BA-133-04-02 (antibody, V domains shown, also called CPE hit BA133-04-02) VH: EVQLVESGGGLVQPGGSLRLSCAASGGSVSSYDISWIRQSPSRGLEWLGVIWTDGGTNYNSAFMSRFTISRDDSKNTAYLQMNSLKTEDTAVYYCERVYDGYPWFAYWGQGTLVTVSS VL: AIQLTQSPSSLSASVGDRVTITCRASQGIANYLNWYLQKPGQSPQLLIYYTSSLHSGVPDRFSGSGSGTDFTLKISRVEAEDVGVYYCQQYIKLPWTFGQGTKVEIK , I found its pKd recorded as 8.97

Looking up BAP133-2-02-12 (antibody, V domains shown, also called BAP133-02-02-12; CPE hit BAP133-2-02-12) VH: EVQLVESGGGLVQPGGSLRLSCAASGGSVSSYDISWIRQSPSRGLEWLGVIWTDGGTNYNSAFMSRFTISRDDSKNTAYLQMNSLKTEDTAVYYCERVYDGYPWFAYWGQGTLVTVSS VL: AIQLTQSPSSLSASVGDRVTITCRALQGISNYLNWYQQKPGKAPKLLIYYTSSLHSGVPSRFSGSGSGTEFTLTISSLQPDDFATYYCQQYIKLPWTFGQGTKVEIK , I found its pKd recorded as 8.41

Looking up BA-133-04-01 (antibody, V domains shown, also called CPE hit BA133-04-01) VH: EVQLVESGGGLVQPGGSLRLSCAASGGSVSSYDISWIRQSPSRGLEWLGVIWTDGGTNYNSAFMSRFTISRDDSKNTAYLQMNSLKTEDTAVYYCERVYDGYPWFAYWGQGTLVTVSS VL: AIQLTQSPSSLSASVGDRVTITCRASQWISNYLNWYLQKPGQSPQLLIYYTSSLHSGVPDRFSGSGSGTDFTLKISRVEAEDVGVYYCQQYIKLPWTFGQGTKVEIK , I found its pKd recorded as 8.89
